Biological target: ALK (Homo sapiens, UniProt Q9UM73)
Sequence (Q9UM73 19-1620): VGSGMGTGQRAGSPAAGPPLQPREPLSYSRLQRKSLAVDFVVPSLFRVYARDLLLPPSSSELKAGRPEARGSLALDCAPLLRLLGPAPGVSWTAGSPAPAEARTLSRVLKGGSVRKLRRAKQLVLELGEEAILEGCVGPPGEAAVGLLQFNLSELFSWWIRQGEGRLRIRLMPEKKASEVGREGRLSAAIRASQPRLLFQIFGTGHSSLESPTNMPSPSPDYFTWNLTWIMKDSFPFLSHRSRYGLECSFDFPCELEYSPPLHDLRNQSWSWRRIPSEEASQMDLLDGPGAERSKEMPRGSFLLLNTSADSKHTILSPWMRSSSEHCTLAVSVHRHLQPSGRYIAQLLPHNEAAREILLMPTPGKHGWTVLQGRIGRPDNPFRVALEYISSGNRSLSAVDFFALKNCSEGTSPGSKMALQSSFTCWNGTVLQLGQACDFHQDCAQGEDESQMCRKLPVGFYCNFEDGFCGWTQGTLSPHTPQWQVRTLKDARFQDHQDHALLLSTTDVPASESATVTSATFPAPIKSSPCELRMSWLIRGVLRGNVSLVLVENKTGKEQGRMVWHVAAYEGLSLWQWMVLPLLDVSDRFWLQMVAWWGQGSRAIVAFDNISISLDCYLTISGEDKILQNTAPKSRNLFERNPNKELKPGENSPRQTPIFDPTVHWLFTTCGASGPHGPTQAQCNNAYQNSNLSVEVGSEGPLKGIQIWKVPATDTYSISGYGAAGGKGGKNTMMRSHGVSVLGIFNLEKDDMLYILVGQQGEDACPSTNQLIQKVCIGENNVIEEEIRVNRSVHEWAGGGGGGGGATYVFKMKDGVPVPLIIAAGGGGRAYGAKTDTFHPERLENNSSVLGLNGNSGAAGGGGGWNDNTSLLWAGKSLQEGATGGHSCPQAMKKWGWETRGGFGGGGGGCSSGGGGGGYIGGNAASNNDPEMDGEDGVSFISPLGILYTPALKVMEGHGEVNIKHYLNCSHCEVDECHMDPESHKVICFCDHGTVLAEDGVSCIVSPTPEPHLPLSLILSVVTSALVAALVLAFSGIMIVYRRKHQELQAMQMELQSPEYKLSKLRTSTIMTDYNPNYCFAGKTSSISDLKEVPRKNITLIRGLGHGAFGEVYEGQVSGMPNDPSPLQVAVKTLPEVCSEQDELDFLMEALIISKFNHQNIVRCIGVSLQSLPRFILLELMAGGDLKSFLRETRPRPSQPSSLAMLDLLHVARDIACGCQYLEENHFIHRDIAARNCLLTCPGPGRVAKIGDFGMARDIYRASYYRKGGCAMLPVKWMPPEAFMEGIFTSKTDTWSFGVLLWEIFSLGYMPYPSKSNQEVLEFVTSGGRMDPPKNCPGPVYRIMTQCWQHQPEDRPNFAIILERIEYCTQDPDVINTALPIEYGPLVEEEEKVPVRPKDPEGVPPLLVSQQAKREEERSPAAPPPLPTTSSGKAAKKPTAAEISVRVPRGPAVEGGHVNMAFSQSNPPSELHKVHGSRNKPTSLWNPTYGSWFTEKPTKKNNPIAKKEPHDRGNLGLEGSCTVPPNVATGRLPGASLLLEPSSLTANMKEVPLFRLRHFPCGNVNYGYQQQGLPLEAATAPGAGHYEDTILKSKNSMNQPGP
pIC50: −log10 of the molar value.
Here the recorded pIC50 is given for each entry.

See these solved cases before continuing.
molecule: COc1cc2c(cc1Nc1nc(Nc3cc(Cl)cc(F)c3C(N)=O)c3cc[nH]c3n1)N(C(=O)CN1CCCC1)CC2 [Example 175]
pIC50: 8.40 to 8.90

molecule: COc1cc(N2CCN(C(C)C)CC2)ccc1Nc1nc(Nc2ccc(F)c(F)c2C(N)=O)c2cc[nH]c2n1 [Example 94]
pIC50: 9.00 to 9.60

molecule: COc1cc(C)c(NC(=O)CN(C)C)cc1Nc1nc(Nc2cccc(F)c2C(N)=O)c2cc[nH]c2n1 [Example 257]
pIC50: 9.00 to 9.60

molecule: COc1cc(N2CCC(N3CC[C@@H](F)C3)CC2)ccc1Nc1nc(Nc2cccc(F)c2C(N)=O)c2cc[nH]c2n1 [Example 44]
pIC50: 8.40 to 8.90

Next molecule, please.
Fill in: pIC50 of COc1ccc(CS(C)(=O)=O)cc1Nc1nc(Nc2ccccc2C(N)=O)c2cc[nH]c2n1 [Example 20] is ___ 6.70 to 8.30

* * *

Target: NIH-3T3 cells overexpressing human IGF-1R (Homo sapiens, UniProt P08069)
Sequence (P08069 31-1367): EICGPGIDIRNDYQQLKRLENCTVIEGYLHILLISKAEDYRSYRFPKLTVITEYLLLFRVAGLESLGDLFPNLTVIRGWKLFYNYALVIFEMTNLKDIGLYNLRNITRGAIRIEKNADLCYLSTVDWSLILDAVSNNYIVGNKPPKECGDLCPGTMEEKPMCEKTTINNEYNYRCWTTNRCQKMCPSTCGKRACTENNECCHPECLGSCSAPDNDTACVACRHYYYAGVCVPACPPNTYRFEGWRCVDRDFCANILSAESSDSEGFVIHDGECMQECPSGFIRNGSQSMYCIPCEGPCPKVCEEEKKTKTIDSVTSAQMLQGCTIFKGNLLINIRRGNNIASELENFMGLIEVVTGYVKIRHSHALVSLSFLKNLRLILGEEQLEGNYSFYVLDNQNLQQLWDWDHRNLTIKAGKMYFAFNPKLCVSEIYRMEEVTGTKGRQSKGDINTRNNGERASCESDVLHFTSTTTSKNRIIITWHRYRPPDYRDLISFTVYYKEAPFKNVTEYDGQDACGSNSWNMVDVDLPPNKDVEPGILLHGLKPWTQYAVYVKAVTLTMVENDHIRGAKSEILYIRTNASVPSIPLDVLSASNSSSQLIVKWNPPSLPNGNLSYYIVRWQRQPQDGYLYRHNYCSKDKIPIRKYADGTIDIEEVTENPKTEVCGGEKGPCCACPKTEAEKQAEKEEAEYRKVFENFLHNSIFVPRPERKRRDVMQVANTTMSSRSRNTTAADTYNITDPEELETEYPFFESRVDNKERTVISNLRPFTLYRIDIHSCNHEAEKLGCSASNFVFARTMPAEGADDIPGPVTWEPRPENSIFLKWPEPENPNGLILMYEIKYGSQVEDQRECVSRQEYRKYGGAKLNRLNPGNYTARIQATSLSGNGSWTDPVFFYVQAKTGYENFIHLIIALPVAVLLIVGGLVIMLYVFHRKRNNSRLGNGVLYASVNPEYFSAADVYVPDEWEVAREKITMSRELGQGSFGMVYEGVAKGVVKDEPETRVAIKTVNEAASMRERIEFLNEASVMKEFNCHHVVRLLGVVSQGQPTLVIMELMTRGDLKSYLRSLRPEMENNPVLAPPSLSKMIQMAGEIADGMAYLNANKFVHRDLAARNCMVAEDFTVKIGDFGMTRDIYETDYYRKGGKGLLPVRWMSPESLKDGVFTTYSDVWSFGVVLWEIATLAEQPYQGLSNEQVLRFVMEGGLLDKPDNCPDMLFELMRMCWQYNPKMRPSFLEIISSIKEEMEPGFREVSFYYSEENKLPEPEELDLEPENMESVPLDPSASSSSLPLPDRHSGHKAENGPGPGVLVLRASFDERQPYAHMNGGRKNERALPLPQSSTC
Assay: IGF-1R cellular autophosphorylation (DELFIA)
pIC50: −log10 of the molar value.
Here the recorded pIC50 is given for each entry.

See these solved cases before continuing.
molecule: CCNC(=O)c1c(F)cc(F)cc1Nc1nc(Nc2cc3c(cc2OC)CCN3C(=O)CN(C)C)nc2[nH]ccc12 [Example 151]
reportedProperty: pIC50
measuredValue: 6.30 to 7.00
//
molecule: CCCNC(=O)c1c(F)cccc1Nc1nc(Nc2cc3c(cc2OC)CCN3C(=O)CN(C)C)nc2[nH]ccc12 [Example 156]
reportedProperty: pIC50
measuredValue: 6.30 to 7.00
//
molecule: COc1ccc(N2CCN(C)CC2)cc1Nc1nc(Nc2ccccc2C(N)=O)c2cc[nH]c2n1 [Example 9]
reportedProperty: pIC50
measuredValue: 6.30 to 7.00

Fill in: pIC50 of COc1cc(N2CCN(C(C)C)CC2)c(C)cc1Nc1nc(Nc2cc(F)cc(F)c2C(N)=O)c2cc[nH]c2n1 [Example 91] is ___ > 7.00

* * *

Target: NIH-3T3 cells overexpressing human IGF-1R (Homo sapiens)
Assay: IGF-1R cellular autophosphorylation (DELFIA)
pIC50: −log10 of the molar value.
reportedProperty: pIC50

structureNotation: CCCN1CCC(c2ccc(Nc3nc(Nc4cc(F)ccc4C(N)=O)c4cc[nH]c4n3)c(OC)c2)CC1
measuredValue: > 7.00

Fill in: pIC50 of `Cc1cc(N2CCOCC2)ccc1Nc1nc(Nc2ccccc2C(N)=O)c2cc[nH]c2n1` is ___ 6.30 to 7.00

Fill in: pIC50 of `CNC(=O)c1c(F)cccc1Nc1nc(Nc2cc3c(cc2OC)CCN(C(C)C)C3)nc2[nH]ccc12` is ___ < 6.30

Fill in: pIC50 of `COc1cc2c(cc1Nc1nc(Nc3cccc(F)c3C(N)=O)c3c(F)c[nH]c3n1)N(C(=O)CN(C)C)CC2` is ___ > 7.00

* * *

Here the recorded IC50 is given for each entry.
Biological target: NIH-3T3 cells overexpressing human IGF-1R (Homo sapiens)
Assay: IGF-1R cellular autophosphorylation (DELFIA)

structureNotation: COc1cc2c(cc1Nc1nc(Nc3cccc(F)c3C(N)=O)c3c(C)c[nH]c3n1)N(C(=O)CN(C)C)CCC2
measuredValue: < 100 nM
--
structureNotation: COc1cc2c(cc1Nc1nc(Nc3cc(F)cc(F)c3C(=O)NCc3ccc(F)cc3)c3cc[nH]c3n1)N(C(=O)CN(C)C)CC2
measuredValue: 100 to 500 nM

Fill in: IC50 of `COc1cc(N2CCN(C(C)C)CC2)ccc1Nc1nc(Nc2cccc(C)c2C(N)=O)c2cc[nH]c2n1` is ___ > 500 nM

Fill in: IC50 of `CNC(=O)c1c(F)cccc1Nc1nc(Nc2cc3c(cc2OC)N(C(=O)CN(C)C)CC3)nc2[nH]ccc12` is ___ > 500 nM

* * *

Here the recorded IC50 is given for each entry.
Target: human IR (hIR) (Homo sapiens, UniProt P06213)
Construct: containing amino acid residues 979-1382 of human IR
Sequence (P06213 979-1382): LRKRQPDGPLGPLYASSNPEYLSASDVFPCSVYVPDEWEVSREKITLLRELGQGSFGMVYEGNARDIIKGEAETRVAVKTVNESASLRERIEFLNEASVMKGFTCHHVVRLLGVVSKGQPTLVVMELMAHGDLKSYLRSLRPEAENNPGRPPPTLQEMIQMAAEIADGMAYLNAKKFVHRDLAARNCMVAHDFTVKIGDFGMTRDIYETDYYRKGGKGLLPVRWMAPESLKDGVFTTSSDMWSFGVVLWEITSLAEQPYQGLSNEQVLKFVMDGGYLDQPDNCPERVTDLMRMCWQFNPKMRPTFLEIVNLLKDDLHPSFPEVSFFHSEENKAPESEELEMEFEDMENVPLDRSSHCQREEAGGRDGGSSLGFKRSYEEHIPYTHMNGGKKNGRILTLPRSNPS
Experiment: TR-FRET kinase assay of purified hIR
Settings: activated hIR 0.5 nM, 10 μM ATP, values given as pIC50 category

See these solved cases before continuing.
structureNotation: COc1cc(N2CCN(C(C)C)CC2)ccc1Nc1nc(Nc2cccc(C)c2C(N)=O)c2cc[nH]c2n1
reportedProperty: IC50
measuredValue: 5.01 to 158 nM
//
structureNotation: CCCN(C)CC(=O)N1CCc2cc(OC)c(Nc3nc(Nc4cccc(F)c4C(N)=O)c4cc[nH]c4n3)cc21
reportedProperty: IC50
measuredValue: 0.251 to 1 nM
//
structureNotation: CNC(=O)c1ccccc1Nc1nc(Nc2ccc(N3CCN(C(C)C)CC3)cc2OC)nc2[nH]ccc12
reportedProperty: IC50
measuredValue: 1.26 to 3.98 nM

Fill in: IC50 of `CNC(=O)c1c(F)cccc1Nc1nc(Nc2cc3c(cc2OC)CCCN3C(=O)CN2CCCCC2)nc2[nH]ccc12` is ___ 1.26 to 3.98 nM

Fill in: IC50 of `COc1cc2c(cc1Nc1nc(Nc3cccc(F)c3C(N)=O)c3cc[nH]c3n1)N(C(=O)CN1CCCCC1)CCC2` is ___ 0.251 to 1 nM

Fill in: IC50 of `COc1cc(N2CCN(C(C)C)CC2)ccc1Nc1nc(Nc2ccc(Br)cc2C(N)=O)c2cc[nH]c2n1` is ___ 0.251 to 1 nM

* * *

Biological target: NIH-3T3 cells overexpressing human IGF-1R (Homo sapiens, UniProt P08069)
Assay: IGF-1R cellular autophosphorylation (DELFIA)
Here the recorded IC50 is given for each entry.

See these solved cases before continuing.
structureNotation: COc1cc2c(cc1Nc1nc(Nc3cccc(F)c3C(N)=O)c3cc[nH]c3n1)N(C(=O)CCN(C)C)CC2
assayTarget: NIH-3T3 cells overexpressing human IGF-1R (Homo sapiens, UniProt P08069)
measuredValue: 100 to 500 nM
--
structureNotation: COc1cc(N2CCN(C(C)C)CC2)ccc1Nc1nc(Nc2ccc(F)cc2C(=O)NCCO)c2cc[nH]c2n1
assayTarget: NIH-3T3 cells overexpressing human IGF-1R (Homo sapiens, UniProt P08069)
measuredValue: > 500 nM
--
structureNotation: COc1ccc(N2CCN(C(C)C)CC2)cc1Nc1nc(Nc2ccccc2C(N)=O)c2cc[nH]c2n1
assayTarget: NIH-3T3 cells overexpressing human IGF-1R (Homo sapiens, UniProt P08069)
measuredValue: 100 to 500 nM

I'm curious: which IC50 was measured for `CNC(=O)c1c(F)cccc1Nc1nc(Nc2cc3c(cc2OC)CCN3C(=O)C(C)(C)O)nc2[nH]ccc12` tested on NIH-3T3 cells overexpressing human IGF-1R (Homo sapiens, UniProt P08069)? > 500 nM

I'm curious: which IC50 was measured for `CNC(=O)c1c(F)cccc1Nc1nc(Nc2cc3c(cc2OC)C[C@@H](C)N3C(=O)CN(C)C)nc2[nH]ccc12` tested on NIH-3T3 cells overexpressing human IGF-1R (Homo sapiens, UniProt P08069)? > 500 nM

I'm curious: which IC50 was measured for `CNC(=O)c1c(F)cccc1Nc1nc(Nc2cc3c(cc2OC)CCN3C(=O)CN(C)C)nc2[nH]cc(F)c12` tested on NIH-3T3 cells overexpressing human IGF-1R (Homo sapiens, UniProt P08069)? 100 to 500 nM

I'm curious: which IC50 was measured for `COc1cc2c(cc1Nc1nc(Nc3cccc(F)c3C(N)=O)c3cc[nH]c3n1)N(C(=O)CCN(C)C)CCC2` tested on NIH-3T3 cells overexpressing human IGF-1R (Homo sapiens, UniProt P08069)? 100 to 500 nM

I'm curious: which IC50 was measured for `COc1cc2c(cc1Nc1nc(Nc3cccc(F)c3C(N)=O)c3cc[nH]c3n1)N(C(=O)N(C)C)CC2` tested on NIH-3T3 cells overexpressing human IGF-1R (Homo sapiens, UniProt P08069)? > 500 nM

I'm curious: which IC50 was measured for `CNC(=O)c1c(F)cc(Cl)cc1Nc1nc(Nc2cc3c(cc2OC)CCN3C(=O)CN(C)C)nc2[nH]ccc12` tested on NIH-3T3 cells overexpressing human IGF-1R (Homo sapiens, UniProt P08069)? 100 to 500 nM

I'm curious: which IC50 was measured for `CCCN1CCC=C(c2ccc(Nc3nc(Nc4ccc(Cl)cc4C(N)=O)c4cc[nH]c4n3)c(OC)c2)C1` tested on NIH-3T3 cells overexpressing human IGF-1R (Homo sapiens, UniProt P08069)? 100 to 500 nM

I'm curious: which IC50 was measured for `CCCN(CCC)[C@@H](C)C(=O)N1CCc2cc(OC)c(Nc3nc(Nc4cccc(F)c4C(N)=O)c4cc[nH]c4n3)cc21` tested on NIH-3T3 cells overexpressing human IGF-1R (Homo sapiens, UniProt P08069)? < 100 nM

I'm curious: which IC50 was measured for `COc1cc2c(cc1Nc1nc(Nc3cccc(F)c3C(N)=O)c3cc[nH]c3n1)CN(C(=O)CCN1CCOCC1)CC2` tested on NIH-3T3 cells overexpressing human IGF-1R (Homo sapiens, UniProt P08069)? 100 to 500 nM

I'm curious: which IC50 was measured for `CCCNC(=O)c1c(F)cc(F)cc1Nc1nc(Nc2cc3c(cc2OC)CCN3C(=O)CN(C)C)nc2[nH]ccc12` tested on NIH-3T3 cells overexpressing human IGF-1R (Homo sapiens, UniProt P08069)? 100 to 500 nM

I'm curious: which IC50 was measured for `Cc1ccc(NC(=O)CN(C)C)cc1Nc1nc(Nc2ccccc2C(=O)NO)c2cc[nH]c2n1` tested on NIH-3T3 cells overexpressing human IGF-1R (Homo sapiens, UniProt P08069)? > 500 nM

src = patent US7981903B2
